Target: CK2 holoenzyme (Homo sapiens, UniProt P67870+P68400)
Construct: made in house; host or cells: E. coli BL21(DE3)
Sequence (P68400 whole entry): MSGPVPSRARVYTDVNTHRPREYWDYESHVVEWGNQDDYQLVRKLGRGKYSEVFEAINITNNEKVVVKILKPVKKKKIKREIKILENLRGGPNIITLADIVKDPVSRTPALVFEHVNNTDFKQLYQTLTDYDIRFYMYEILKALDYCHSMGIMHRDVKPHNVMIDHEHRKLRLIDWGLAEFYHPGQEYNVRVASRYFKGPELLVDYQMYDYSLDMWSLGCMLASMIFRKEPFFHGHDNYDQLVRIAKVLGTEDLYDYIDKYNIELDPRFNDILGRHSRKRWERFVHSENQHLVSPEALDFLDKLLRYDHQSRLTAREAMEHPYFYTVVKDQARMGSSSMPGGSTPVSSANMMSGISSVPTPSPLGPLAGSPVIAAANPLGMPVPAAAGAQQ
Sequence (P67870 whole entry partner): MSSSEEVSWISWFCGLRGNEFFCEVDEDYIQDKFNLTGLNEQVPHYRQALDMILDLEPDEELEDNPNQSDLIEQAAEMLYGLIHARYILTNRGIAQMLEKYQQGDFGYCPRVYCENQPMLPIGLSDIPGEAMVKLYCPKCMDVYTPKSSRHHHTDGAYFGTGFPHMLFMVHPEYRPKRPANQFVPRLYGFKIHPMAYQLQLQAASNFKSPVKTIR
Assay: CE-based CK2 inhibition assay, CK2 holoenzyme
Format: biochemical
Conditions: CE assay, substrate […], 7 min; concentrations 0.001 to 100 µM (Figure 6A: eight, 0.01 to 31.6 µM); triplicates
Description: Based on the aa sequences of variants B1–B4 (Table 1), the free peptides were synthesized and tested on inhibition of CK2 holoenzyme. For this purpose a CE-based CK2 inhibition assay was used as described before. For initial testing CK2 was pre-incubated with the peptide in a final concentration of 10 µM for 10 min at 37 °C. After addition of the substrate and ATP, the reaction ran for 7 min and the amount of product was determined by CE. […]
No end group written: not given here.
outcome-measure: pIC50
On this scale, pIC50 is minus log10 of a concentration expressed in M (mol/L).

Ask | // pIC50 lookup, key: DCRGLIVMIKLH [Peptide B2]
Reply | 6.10
